# Test system: A549
# test: NCI tumour cell line growth inhibition, 48 h
The source made the active and inactive calls. Cut-off read from the data, not from the text of the source: active = GI50 up to about 1.1 µM and inactive = higher.
A collection of compounds and their measured GI50
parameter_measured: GI50

- Cc1nc(O)nc(N(CCO)/N=C/c2ccc(Cl)cc2)c1C(=O)Nc1ccc(Cl)cc1: > 100 µM (inactive)
- C=CCN1CCC(O)(c2cc(C(=O)OCC)[nH]c2-c2cc(C)no2)C1 (stereo not given): > 100 µM (inactive)
- COc1cc(CC(=O)c2ccc3c(c2)OCO3)cc(OC)c1OC: > 100 µM (inactive)
- Cc1nc(C)c(Cc2ccccc2)o1: > 100 µM (inactive)
- Cc1[nH]c(=O)nc(N/N=C/c2ccc(Cl)cc2)c1C(=O)Nc1ccc(Cl)cc1: 27 µM (inactive)

====

Reported GI50 by item:
# System: A498
# test: NCI tumour cell line growth inhibition, 48 h
Calls of active or inactive are those of the source. Rule as the data show it: active = GI50 up to about 1.1 µM and inactive = higher.
parameter_measured: GI50

- COC(=O)c1cc(CC2Cc3cc4c(cc3C2)CCC4)cc2c1CCC2: > 100 µM (inactive)
- C=CCC(CNC(=O)OCc1ccccc1)O[Si](C)(C)C(C)(C)C (stereo unspecified): 38.8 µM (inactive)
- Cc1ccccc1NC(=O)CC(=O)NNCC(=O)Nc1nnc(-c2ccccc2)s1: 30.9 µM (inactive)
- CC(C)C1=Cc2ccc3c(c2C(=O)C1=O)CCCC3(C)C: 17.4 µM (inactive)
- CCOC(=O)C1=C(Nc2cccc3ccccc23)OC/C1=N\NC(=O)c1ccccc1O: 19.5 µM (inactive)
- O=C(/N=N/c1ccc(Cl)cc1Cl)NNc1ccc(Cl)cc1Cl: 15.7 µM (inactive)
- CC(=O)c1sc2c(c1OC(=O)c1ccccc1)c(=O)n(-c1ccccc1)c(=S)n2-c1ccccc1: 2.49 µM (inactive)
- O=C/C(=C(/Cl)c1ccc(O)cc1)c1ccccc1: 50.5 µM (inactive)
- CC[C@H](C)C1=C(OC(C)=O)[N@+]2([O-])Oc3ccc(-c4c(O)c(O)c(-c5ccc(OC(C)=O)cc5)c(OC(C)=O)c4OC(C)=O)cc3O[C@]2([C@@H](C)CC)C(=O)N1O: 7.85 µM (inactive)
- COc1cc(C2C3=C(COC3=O)OC(C)(C)Oc3cc4c(cc32)OCO4)cc(OC)c1O (stereo unspecified): 1.04 µM (active)
- Oc1ccc2ccccc2c1/C=C/c1ccc2c(Br)cc(Br)c(O)c2n1: 5.64 µM (inactive)
- CC(=O)C(CN(CC(C)C)CC(C)C)C(c1ccccc1)c1c(O)c2ccccc2oc1=O (stereo unspecified): > 100 µM (inactive)
- CSc1nc(Cl)c(Br)c(Nc2cnc(O)nc2O)n1: 11.6 µM (inactive)
- CN1CCc2c1nc(-c1cccnc1)c1c2N(C)CC1: 52 µM (inactive)
- C#CCOCC12C=CC(O1)C1COC(=O)C12 (stereo unspecified): > 100 µM (inactive)
- COc1ccc2oc(=O)c(-c3nc4ccccc4o3)cc2c1: 67.9 µM (inactive)

====

# Tested on: SF-295
# test: NCI tumour cell line growth inhibition, 48 h
The source made the active and inactive calls. Cut-off read from the data, not from the text of the source: active = GI50 up to about 1.1 µM and inactive = higher.
# GI50 annotations
parameter_measured: GI50

* CCCCC1C(=O)N(c2ccc(S(=O)(=O)Nc3ccccn3)cc2)N(c2ccc(O)c(C(=O)O)c2)C1=O (stereo not given) | > 100 µM (inactive)
* O=C1Nc2ccccc2/C1=N/NC(=S)N1CCCCCC1 | 1 µM (active)
* O=C(c1cccs1)N(Cc1cccnc1)C(=S)N(Cc1cccnc1)C(=O)c1cccs1 | 32.2 µM (inactive)
* CC1(C)CCCCCCCCCC2CC2CCC(C)(C)C1=O (stereo not given) | 18.3 µM (inactive)
* C=CCC1(CN(C)C)CC/C(=C\c2cc(OC)c(OC)c(OC)c2)C1=O (stereo not given) | 38.1 µM (inactive)
* COc1ccc2[nH]c3c(C)c4ccnc(NCCCN(C)CCCNc5ccc6nnn7c8ccccc8c(=O)c5c67)c4c(C)c3c2c1 | 0.14 µM (active)
* CC(C)=CCc1c(C)cc2cc3c(c(O)c2c1O)C(=O)C=C(O)C3(CC=C(C)C)C/C=C(\C)CO (stereo not given) | 45.2 µM (inactive)
* CC(C)CNC(=O)O | > 100 µM (inactive)
* COC(=O)C1=C(O)C(C(=O)OC)[C@]2(O)[C@H](C(=O)OC)[C@H]1C[C@@H](c1ccc(Cl)cc1)[C@H]2C(=O)OC (stereo not given in full) | 4.28 µM (inactive)
* CCCC(C(=O)OC)C1N/C(=N/C#N)N(Cc2ccccc2)C1=O (stereo not given) | > 100 µM (inactive)

====

# System: OVCAR-5
# test: NCI tumour cell line growth inhibition, 48 h
Activity calls are given as the source filed them. No stated cut-off is given here; in the data, active = GI50 up to about 1.1 µM and inactive = higher.
parameter_measured: GI50

- O=c1c2ncn(CCCl)c2n(-c2ccccc2)c(=S)n1-c1ccccc1: > 100 µM (inactive)
- CCCNC1=NC(C)=CSC(Nc2ccccc2)=C1C#N: > 100 µM (inactive)
- CC1(C)CC(O)C2=C(O1)C(=O)c1ncccc1C2=O (stereo unspecified): 1.89 µM (inactive)
- CC(=O)C1=C(O)/C(=C\c2ccco2)OC1=O: > 10 µM (inactive)
- C=C1C(OC2O[C@@H]3O[C@@]4(C)CC[C@H]5[C@H](C)CC[C@@H](C2=C)[C@@]35O4)O[C@@H]2O[C@@]3(C)CC[C@H]4[C@H](C)CC[C@@H]1[C@@]24O3 (stereo partly specified): > 50 µM (inactive)
- CNC(=O)SCC(NC(=O)CCC(N)C(=O)O)C(=O)NCC(=O)O (stereo unspecified): > 100 µM (inactive)
- N#CC(Cc1ccccc1)N(CCC1=CCCCC1)C(c1ccccc1)c1ccccc1 (stereo unspecified): 95.7 µM (inactive)
- N#CC12CC3(CCC1CCC1(C2)OCCO1)OCCO3 (stereo unspecified): > 100 µM (inactive)
- O=C1O[B-](c2ccccc2)(c2ccccc2)[NH+]2CCCC12 (stereo unspecified): > 100 µM (inactive)
- Cc1ccc2nc3c(C)c(Cl)c(=O)cc-3sc2c1: 34.3 µM (inactive)
- CC[C@H](C)C1=C(OC(C)=O)[N@+]2([O-])Oc3ccc(-c4c(O)c(O)c(-c5ccc(OC(C)=O)cc5)c(OC(C)=O)c4OC(C)=O)cc3O[C@]2([C@@H](C)CC)C(=O)N1O: 22.9 µM (inactive)
- CC1=NN(c2cc(Cl)c(S(=O)(=O)O)cc2Cl)C2(C1)C(Cl)C(=O)N2c1nc2ccccc2s1 (stereo unspecified): > 100 µM (inactive)
- CC(=O)OCC1OC(n2c3c(cc(C#N)c2=S)CCCC3)C(OC(C)=O)C(OC(C)=O)C1OC(C)=O (stereo unspecified): > 100 µM (inactive)
- CCCCCCOc1ccc(C(=O)NOCc2ccccc2)cc1: > 100 µM (inactive)
- O=C1Oc2ccccc2C(=O)/C1=C/NC(=S)NCc1ccccc1: > 100 µM (inactive)
- Cc1c(N)nc(C(CC(N)=O)NCC(N)C(N)=O)nc1C(=O)NC(C(=O)NC(C)C(O)C(C)C(=O)NC(C(=O)NCCc1nc(-c2nc(C(=O)NCCCNC(C)c3ccccc3)cs2)cs1)C(C)O)C(OC1OC(CO)C(O)C(O)C1OC1OC(CO)C(O)C(OC(N)=O)C1O)c1c[nH]cn1 (stereo unspecified): 5.96 µM (inactive)
- C/C(=N\NC(=O)c1cccnc1)c1cccc(/C(C)=N/NC(=O)c2cccnc2)n1.CC(=O)[O-].CC(=O)[O-].[Zn+2]: 4.13 µM (inactive)
- Cc1cc(=O)oc2cc(OCc3c(F)cccc3Cl)ccc12: > 100 µM (inactive)
- CSc1ccc(NC(=O)C2CCCCC2C(=O)O)cc1 (stereo unspecified): > 100 µM (inactive)
- CC(Br)C(=O)c1ccc2cc(Br)c3ccccc3c2c1 (stereo unspecified): 17 µM (inactive)
- COc1ccc(/C=N/c2nc3cc4sc(/N=C/c5ccc(OC)cc5)nc4cc3s2)cc1: > 81.5 µM (inactive)
- CC(C)=CCC/C(C)=C/Cc1cc(/C=C/c2cc(O)c(CC=C(C)C)c(O)c2)cc(O)c1O [MAPPAIN]: 4.36 µM (inactive)
- O=C(O)CCC(=O)OC1N=C(c2ccccc2Cl)c2cc([N+](=O)[O-])ccc2NC1=O (stereo unspecified): > 100 µM (inactive)
- CC(C)=CCC/C(C)=C/CC/C(C)=C/CC/C=C(\C)CC/C=C(\C)CCC1SC1(C)C (stereo unspecified): > 100 µM (inactive)
- COc1ccc(-c2nc3ccccc3s2)cc1OC: > 100 µM (inactive)
- CC(=O)/C(=C\c1ccccc1)C(=O)Nc1ccccc1: > 100 µM (inactive)
- COc1cc(/C=C/C(=O)O)ccc1C(=O)O/C=C/c1ccccc1: > 100 µM (inactive)
- O=C1Nc2ccc([N+](=O)[O-])cc2/C1=N/NC(=S)Nc1ccccc1: 12.2 µM (inactive)
- COC(=N)/C(=C1\OC(=N)C(c2ccc(Cl)cc2)=C1O)c1ccc(Cl)cc1: > 100 µM (inactive)
- N#CC12Cc3cc4c(cc3-c3cccc(c31)CCN2C(=O)c1ccccc1)OCO4 (stereo unspecified): > 100 µM (inactive)
- CCOC(=O)C1=C(Nc2cccc3ccccc23)OC/C1=N\NC(=O)c1ccccc1O: 20.6 µM (inactive)
- Cc1nc(O)nc(N(CCO)/N=C/c2ccc(Cl)cc2)c1C(=O)Nc1ccc(Cl)cc1: > 100 µM (inactive)
- O=c1[nH]/c(=C/c2ccc(OCc3ccccc3)cn2)c(=O)[nH]/c1=C/c1ccc([N+](=O)[O-])cc1: > 100 µM (inactive)
- COc1cc(C2C3=C(COC3=O)OC(C)(C)Oc3cc4c(cc32)OCO4)cc(OC)c1O (stereo unspecified): 3.58 µM (inactive)
- CC1(C)CC(=O)C(Cc2ccccc2)(Cc2ccccc2)C(=O)C1: > 100 µM (inactive)
- COc1ccc2c(c1)CCCc1cn[nH]c1-2: > 100 µM (inactive)
